Listing: GI50 of selected compounds
# Tested on: HCT-15
# assay text: Growth inhibition of human HCT15 cells incubated for 48 hrs by sulforhodamine B assay
# Format: functional
# condition context: HCT-15, 48 h
Field: numeric (nM). Do not append units.

// worked examples, GI50 included
compound	target	GI50 / nM
C=C1CC[C@@H]2[C@](C)(COC(C)=O)[C@H](OC(C)=O)CC[C@@]2(C)[C@H]1CC(Nc1ccc(S(=O)(=O)Nc2nccc(C)n2)cc1)C1=CCOC1=O (stereo not given in full)	HCT-15	1790
C=C1CC[C@@H]2[C@](C)(COC(C)=O)[C@H](OC(C)=O)CC[C@@]2(C)[C@H]1CC(Nc1ccc(S(=O)(=O)Nc2ncccn2)cc1)C1=CCOC1=O (stereo not given in full)	HCT-15	1210
C=C1CC[C@@H]2[C@](C)(COC(C)=O)[C@H](OC(C)=O)CC[C@@]2(C)[C@H]1CC(Nc1ccc(S(=O)(=O)Nc2ccc(Cl)nn2)cc1)C1=CCOC1=O (stereo not given in full)	HCT-15	880

**Query** Which GI50 is reported with HCT-15 for this entry: C=C1CC[C@@H]2[C@](C)(COC(C)=O)[C@H](OC(C)=O)CC[C@@]2(C)[C@H]1CC(Nc1ccc(S(=O)(=O)Nc2nccs2)cc1)C1=CCOC1=O (stereo not given in full) ?
**Result** 1730

**Query** Next record, please: C=C1CC[C@@H]2[C@](C)(COC(C)=O)[C@H](OC(C)=O)CC[C@@]2(C)[C@H]1CC(Nc1ccc(S(=O)(=O)Nc2cc(C)on2)cc1)C1=CCOC1=O (stereo not given in full)
**Result** 1500
